Item-by-item account of IC50
Target of assay: PYL10 (Arabidopsis thaliana, UniProt Q8H1R0)
Construct: 6X-His; made in house; host or cells: E. coli BL21[DE3]pLysS
Sequence (Q8H1R0 1-183): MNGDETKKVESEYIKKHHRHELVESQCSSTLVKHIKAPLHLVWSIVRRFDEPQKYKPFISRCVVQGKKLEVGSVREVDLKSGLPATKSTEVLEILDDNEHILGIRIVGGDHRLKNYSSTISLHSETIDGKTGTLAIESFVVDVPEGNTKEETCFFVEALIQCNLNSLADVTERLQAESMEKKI
Sequence (Q9CAJ0 23-511 partner): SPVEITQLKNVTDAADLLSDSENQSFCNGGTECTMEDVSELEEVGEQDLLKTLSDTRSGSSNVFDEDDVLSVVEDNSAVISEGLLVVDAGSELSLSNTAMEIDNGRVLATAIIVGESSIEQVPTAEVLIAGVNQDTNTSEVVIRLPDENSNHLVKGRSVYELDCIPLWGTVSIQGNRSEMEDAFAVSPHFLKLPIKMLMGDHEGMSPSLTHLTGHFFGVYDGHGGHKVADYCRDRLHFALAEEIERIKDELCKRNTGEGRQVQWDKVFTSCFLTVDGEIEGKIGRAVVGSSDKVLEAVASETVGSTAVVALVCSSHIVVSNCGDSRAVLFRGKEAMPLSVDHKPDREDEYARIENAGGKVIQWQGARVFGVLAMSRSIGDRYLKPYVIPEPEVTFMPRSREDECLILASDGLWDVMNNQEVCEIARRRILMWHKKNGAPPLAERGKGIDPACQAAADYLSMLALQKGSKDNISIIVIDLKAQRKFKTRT
Test: receptor-mediated PP2C (HAB1) inhibition in vitro assay
Type: biochemical
Assay context: Table XII-B; calculated from dose curves; read-out: PP2C Activity (IC50 in uM) PYL10
Procedure: A family of 62 structurally related N-acyl sulfonamides (Tables I-V) were tested for ABA agonist activity using multiple receptor-mediated PP2C inhibition in vitro assays (Park et al., 2009). […] For these in vitro receptor assays, the compounds listed were tested in in vitro PP2C inhibition assays with 50 uM of the test compound except for ABA (10 uM). IC50s were calculated from dose curves, but only for selected compounds.
Property measured: IC50 (µM)

# Record smiles, Property measured, Sign qualifier, Result
records = [
    ("CC1(C)CCC(C(=O)NS(=O)(=O)Cc2ccc(C#N)cc2)(c2ccc(F)cc2)CC1", "IC50", ">", 50),
    ("N#Cc1ccc(CS(=O)(=O)NC(=O)C(c2ccccc2)c2ccccc2)cc1", "IC50", ">", 50),
    ("CC(C)COC(=O)NS(=O)(=O)Cc1ccc(C#N)cc1", "IC50", "=", 19.2),
    ("O=C(NS(=O)(=O)Cc1ccc(F)cc1)C1(c2ccccc2)CCCCC1", "IC50", ">", 50),
    ("N#Cc1ccc(CS(=O)(=O)NC(=O)C2(c3ccsc3)CCCCC2)cc1Br", "IC50", "=", 0.022),
    ("N#Cc1ccc(CS(=O)(=O)NC(=O)C2(c3ccccc3)CCCCC2)cc1", "IC50", "=", 1.69),
    ("O=C(NS(=O)(=O)Cc1ccc([N+](=O)[O-])cc1)C1(c2ccccc2)CCCCC1", "IC50", ">", 50),
    ("N#Cc1ccc(CS(=O)(=O)NC(=O)C(c2ccc(F)cc2)c2ccc(F)cc2)cc1", "IC50", ">", 50),
    ("N#Cc1ccc(CS(=O)(=O)NC(=O)C(C2CCCCC2)C2CCCCC2)cc1", "IC50", ">", 50),
    ("N#Cc1ccc(CS(=O)(=O)NC(=O)C2(c3ccsc3)CCCCC2)cc1", "IC50", "=", 0.25),
    ("N#Cc1ccc(CS(=O)(=O)NC(=O)C2(c3cccs3)CCCCC2)cc1", "IC50", "=", 0.38),
]
